Assay: Drug homolysis in H2O/MeOH buffered with HCl/KCl at pH 2.2 assessed as activation energy in presence of alkyl radical scavenger TEMPOR by 31P[1H]-NMR analysis
assayEndpoint: Ea (kcal/mol)

• CCOP(=O)(OCC)C(N(OC(C)c1c[nH]cn1)C(C)(C)C)C(C)(C)C (stereo in doubt; form 2) = 29
• CCOP(=O)(OCC)C(N(OC(C)c1nccn1C)C(C)(C)C)C(C)(C)C (stereo in doubt; form 1) = 26.2
• CCOP(=O)(OCC)C(N(OC(C)c1cn(C)cn1)C(C)(C)C)C(C)(C)C (stereo in doubt; form 1) = 28.3
• CCOP(=O)(OCC)C(N(OC(C)c1c[nH]cn1)C(C)(C)C)C(C)(C)C (stereo in doubt; form 1) = 28.5
• CCOP(=O)(OCC)C(N(OC(C)c1cn(C)cn1)C(C)(C)C)C(C)(C)C (stereo in doubt; form 2) = 28.8
• CCOP(=O)(OCC)C(N(OC(C)c1nccn1C)C(C)(C)C)C(C)(C)C (stereo in doubt; form 2) = 26.1
• CCOP(=O)(OCC)C(N(OC(C)c1ncc[nH]1)C(C)(C)C)C(C)(C)C (stereo in doubt; form 2) = 26.6
• CCOP(=O)(OCC)C(N(OC(C)c1ncc[nH]1)C(C)(C)C)C(C)(C)C (stereo in doubt; form 1) = 26.7

====

Assay: Dissociation constant, pKa of the compound in 1:1 v/v D2O/CD3OD by 1H-NMR spectrometric method
Format: physicochemical
Conditions: 1:1 v/v D2O/CD3OD; read-out: pKa
Entry flag: y if pKa reaches 6; n if it does not.

• CCOP(=O)(OCC)C(N(OC(C)c1ccncc1)C(C)(C)C)C(C)(C)C (stereo unspecified) = n
• CCOP(=O)(OCC)C(N(OC(C)c1nccn1C)C(C)(C)C)C(C)(C)C (stereo in doubt; form 1) = y
• CCOP(=O)(OCC)C(N(OC(C)n1ccnc1)C(C)(C)C)C(C)(C)C (stereo in doubt; form 1) = n
• CCOP(=O)(OCC)C(N(OC(C)c1cn(C)cn1)C(C)(C)C)C(C)(C)C (stereo in doubt; form 1) = y

====

Each entry below carries its reported t1/2.
Experiment: Half life in H2O/MeOH buffered with HCl/KCl at pH 2.2 in presence of alkyl radical scavenger TEMPOR by 31P[1H]-NMR analysis
Assay type: physicochemical
Details: buffer
assayEndpoint: t1/2 (h)

• CCOP(=O)(OCC)C(N(OC(C)c1ncc[nH]1)C(C)(C)C)C(C)(C)C (stereo in doubt; form 1) = 5
• CCOP(=O)(OCC)C(N(OC(C)c1nccn1C)C(C)(C)C)C(C)(C)C (stereo in doubt; form 2) = 1.98
• CCOP(=O)(OCC)C(N(OC(C)c1cn(C)cn1)C(C)(C)C)C(C)(C)C (stereo in doubt; form 1) = 65
• CCOP(=O)(OCC)C(N(OC(C)c1cn(C)cn1)C(C)(C)C)C(C)(C)C (stereo in doubt; form 2) = 170
• CCOP(=O)(OCC)C(N(OC(C)c1c[nH]cn1)C(C)(C)C)C(C)(C)C (stereo in doubt; form 2) = 190

====

Assay: Dissociation constant, pKa of the compound in 1:1 v/v D2O/CD3OD by 1H-NMR spectrometric method
Type: physicochemical
Each entry below carries its reported pKa.
assayEndpoint: pKa

- CCOP(=O)(OCC)C(N(OC(C)n1ccnc1)C(C)(C)C)C(C)(C)C (stereo in doubt; form 2): 5.81
- CCOP(=O)(OCC)C(N(OC(C)c1ncc[nH]1)C(C)(C)C)C(C)(C)C (stereo in doubt; form 1): 6.04
- CCOP(=O)(OCC)C(N(OC(C)c1c[nH]cn1)C(C)(C)C)C(C)(C)C (stereo in doubt; form 2): 6.13
- CCOP(=O)(OCC)C(N(OC(C)c1nccn1C)C(C)(C)C)C(C)(C)C (stereo in doubt; form 2): 6.5
- CCOP(=O)(OCC)C(N(OC(C)c1cn(C)cn1)C(C)(C)C)C(C)(C)C (stereo in doubt; form 2): 6.56

====

Assay: Stability in H2O/MeOH buffered with HCl/KCl at pH 2.2 assessed as temperature
Assay type: physicochemical
Conditions: buffer
assayEndpoint: T (°C)

* CCOP(=O)(OCC)C(N(OC(C)c1c[nH]cn1)C(C)(C)C)C(C)(C)C (stereo in doubt; form 1) | 80
* CCOP(=O)(OCC)C(N(OC(C)c1ncc[nH]1)C(C)(C)C)C(C)(C)C (stereo in doubt; form 2) | 60
* CCOP(=O)(OCC)C(N(OC(C)c1cn(C)cn1)C(C)(C)C)C(C)(C)C (stereo in doubt; form 1) | 80
* CCOP(=O)(OCC)C(N(OC(C)c1nccn1C)C(C)(C)C)C(C)(C)C (stereo in doubt; form 1) | 60

====

Test: Stability in H2O/MeOH buffered with HEPES/NaCl at pH 7.4 assessed as temperature
Format: physicochemical
Settings: buffer
assayEndpoint: T (°C)

- CCOP(=O)(OCC)C(N(OC(C)c1c[nH]cn1)C(C)(C)C)C(C)(C)C (stereo in doubt; form 1): 80
- CCOP(=O)(OCC)C(N(OC(C)c1ncc[nH]1)C(C)(C)C)C(C)(C)C (stereo in doubt; form 2): 70
- CCOP(=O)(OCC)C(N(OC(C)c1cn(C)cn1)C(C)(C)C)C(C)(C)C (stereo in doubt; form 1): 80
- CCOP(=O)(OCC)C(N(OC(C)c1cn(C)c[n+]1C)C(C)(C)C)C(C)(C)C (stereo in doubt; form 2): 80
- CCOP(=O)(OCC)C(N(OC(C)c1n(C)cc[n+]1C)C(C)(C)C)C(C)(C)C (stereo in doubt; form 1): 70
- CCOP(=O)(OCC)C(N(OC(C)c1cn(C)c[n+]1C)C(C)(C)C)C(C)(C)C (stereo in doubt; form 1): 70
- CCOP(=O)(OCC)C(N(OC(C)n1cc[n+](C)c1)C(C)(C)C)C(C)(C)C (stereo in doubt; form 1): 100
- CCOP(=O)(OCC)C(N(OC(C)c1nccn1C)C(C)(C)C)C(C)(C)C (stereo in doubt; form 1): 70
- CCOP(=O)(OCC)C(N(OC(C)c1n(C)cc[n+]1C)C(C)(C)C)C(C)(C)C (stereo in doubt; form 2): 60

====

Assay: n-octanol/phosphate buffered saline partition coefficient, log D of the compound at pH 7.4 by shake-flask method
Assay type: physicochemical
Settings: octanol/water
assayEndpoint: logD

• CCOP(=O)(OCC)C(N(OC(C)c1n(C)cc[n+]1C)C(C)(C)C)C(C)(C)C (stereo in doubt; form 2) = 0.5
• CCOP(=O)(OCC)C(N(OC(C)c1c[nH]cn1)C(C)(C)C)C(C)(C)C (stereo in doubt; form 2) = 4
• CCOP(=O)(OCC)C(N(OC(C)n1cc[n+](C)c1)C(C)(C)C)C(C)(C)C (stereo in doubt; form 1) = -0.1
• CCOP(=O)(OCC)C(N(OC(C)c1nccn1C)C(C)(C)C)C(C)(C)C (stereo in doubt; form 2) = 3.7
• CCOP(=O)(OCC)C(N(OC(C)c1cn(C)cn1)C(C)(C)C)C(C)(C)C (stereo in doubt; form 2) = 3.8
• CCOP(=O)(OCC)C(N(OC(C)c1ncc[nH]1)C(C)(C)C)C(C)(C)C (stereo in doubt; form 1) = 4.1
• CCOP(=O)(OCC)C(N(OC(C)c1cn(C)c[n+]1C)C(C)(C)C)C(C)(C)C (stereo in doubt; form 2) = 0.4
• CCOP(=O)(OCC)C(N(OC(C)c1n(C)cc[n+]1C)C(C)(C)C)C(C)(C)C (stereo in doubt; form 1) = -0.2
• CCOP(=O)(OCC)C(N(OC(C)n1cc[n+](C)c1)C(C)(C)C)C(C)(C)C (stereo in doubt; form 2) = 0.3

====

Assay: Half life in H2O/MeOH buffered with Na2CO3/NaHCO3 at pH 10.3 in presence of alkyl radical scavenger TEMPOR by 31P[1H]-NMR analysis
Assay type: physicochemical
Settings: buffer, pH 10.3
assayEndpoint: t1/2

- CCOP(=O)(OCC)C(N(OC(C)c1nccn1C)C(C)(C)C)C(C)(C)C (stereo in doubt; form 1): 5.42 days
- CCOP(=O)(OCC)C(N(OC(C)c1c[nH]cn1)C(C)(C)C)C(C)(C)C (stereo in doubt; form 2): 19 days
- CCOP(=O)(OCC)C(N(OC(C)c1nccn1C)C(C)(C)C)C(C)(C)C (stereo in doubt; form 2): 1.62 days
- CCOP(=O)(OCC)C(N(OC(C)c1ncc[nH]1)C(C)(C)C)C(C)(C)C (stereo in doubt; form 1): 13 days
- CCOP(=O)(OCC)C(N(OC(C)c1cn(C)cn1)C(C)(C)C)C(C)(C)C (stereo in doubt; form 2): 70 days

====

Assay: Drug homolysis in H2O/MeOH buffered with HCl/KCl at pH 2.2 assessed as rate constant by measuring nitroxide level in presence of alkyl radical scavenger TEMPOR by 31P[1H]-NMR analysis
assayEndpoint: Kdiss (×10⁻⁴ /s)

- CCOP(=O)(OCC)C(N(OC(C)c1c[nH]cn1)C(C)(C)C)C(C)(C)C (stereo in doubt; form 1): 5.23
- CCOP(=O)(OCC)C(N(OC(C)c1ncc[nH]1)C(C)(C)C)C(C)(C)C (stereo in doubt; form 2): 9.16
- CCOP(=O)(OCC)C(N(OC(C)c1c[nH]cn1)C(C)(C)C)C(C)(C)C (stereo in doubt; form 2): 2.8
- CCOP(=O)(OCC)C(N(OC(C)c1ncc[nH]1)C(C)(C)C)C(C)(C)C (stereo in doubt; form 1): 7.47
- CCOP(=O)(OCC)C(N(OC(C)c1cn(C)cn1)C(C)(C)C)C(C)(C)C (stereo in doubt; form 1): 7.84
- CCOP(=O)(OCC)C(N(OC(C)c1cn(C)cn1)C(C)(C)C)C(C)(C)C (stereo in doubt; form 2): 3.55

This collection of values is drawn from ChEMBL document CHEMBL4339209.
